- Test system: HeLa
- testDescription: Antiproliferative activity against human HeLa cells measured after 72 hrs by EZ-Cytox assay
- Format: functional, cell-based
Measured pIC50 values are reported for all entries that follow.
# pIC50 = -log10(concentration in molar units)

Some compounds with recorded pIC50:
structurenotation=Oc1cccc(-c2cc(-c3ccc(F)cc3)nc3c2Cc2cccc(O)c2-3)c1 numericreadout=5.06
structurenotation=Oc1ccc(-c2cc(-c3ccc(C(F)(F)F)cc3)nc3c2Cc2c(O)cccc2-3)cc1 numericreadout=5.18
structurenotation=Oc1ccc2c(c1)Cc1c(-c3ccccc3O)cc(-c3ccc(Cl)cc3)nc1-2 numericreadout=5.42

With those in mind, consider the next compound.
Note to self: pIC50 recorded for "Oc1ccc(-c2cc(-c3cccc(C(F)(F)F)c3)nc3c2Cc2cccc(O)c2-3)cc1" was 4.77

---

- Test system: DU-145
- testDescription: Antiproliferative activity against human DU145 cells measured after 72 hrs by EZ-Cytox assay
- Type: functional, cell-based
- conditionDetails: DU-145, 72 h
Measured IC50 values are reported for all entries that follow.
Write it as a number; the unit µM goes unstated.

Note to self: IC50 recorded for "Oc1cccc(-c2cc(-c3ccccc3)c3c(n2)-c2cccc(O)c2C3)c1" was 0.52

Note to self: IC50 recorded for "Oc1cccc(-c2cc(-c3cccc(Cl)c3)c3c(n2)-c2ccc(O)cc2C3)c1" was 6.29

Note to self: IC50 recorded for "Oc1ccc2c(c1)Cc1c(-c3ccccc3O)cc(-c3ccc(Cl)cc3)nc1-2" was 0.65

Note to self: IC50 recorded for "Oc1ccccc1-c1cc(-c2cccc(C(F)(F)F)c2)nc2c1Cc1cccc(O)c1-2" was 3.38

Note to self: IC50 recorded for "Oc1ccc(-c2cc(-c3cccc(C(F)(F)F)c3)nc3c2Cc2cccc(O)c2-3)cc1" was 44.1

Note to self: IC50 recorded for "Oc1ccccc1-c1cc(-c2cccc(F)c2)nc2c1Cc1cccc(O)c1-2" was 9.97

Note to self: IC50 recorded for "Oc1ccc(-c2cc(-c3cccc(Cl)c3)nc3c2Cc2cccc(O)c2-3)cc1" was 0.03

Note to self: IC50 recorded for "Oc1ccc(-c2cc(-c3ccc(C(F)(F)F)cc3)nc3c2Cc2ccc(O)cc2-3)cc1" was 2.98

---

- targetOrTestSystem: UniProt P11387
- Sequence (whole entry): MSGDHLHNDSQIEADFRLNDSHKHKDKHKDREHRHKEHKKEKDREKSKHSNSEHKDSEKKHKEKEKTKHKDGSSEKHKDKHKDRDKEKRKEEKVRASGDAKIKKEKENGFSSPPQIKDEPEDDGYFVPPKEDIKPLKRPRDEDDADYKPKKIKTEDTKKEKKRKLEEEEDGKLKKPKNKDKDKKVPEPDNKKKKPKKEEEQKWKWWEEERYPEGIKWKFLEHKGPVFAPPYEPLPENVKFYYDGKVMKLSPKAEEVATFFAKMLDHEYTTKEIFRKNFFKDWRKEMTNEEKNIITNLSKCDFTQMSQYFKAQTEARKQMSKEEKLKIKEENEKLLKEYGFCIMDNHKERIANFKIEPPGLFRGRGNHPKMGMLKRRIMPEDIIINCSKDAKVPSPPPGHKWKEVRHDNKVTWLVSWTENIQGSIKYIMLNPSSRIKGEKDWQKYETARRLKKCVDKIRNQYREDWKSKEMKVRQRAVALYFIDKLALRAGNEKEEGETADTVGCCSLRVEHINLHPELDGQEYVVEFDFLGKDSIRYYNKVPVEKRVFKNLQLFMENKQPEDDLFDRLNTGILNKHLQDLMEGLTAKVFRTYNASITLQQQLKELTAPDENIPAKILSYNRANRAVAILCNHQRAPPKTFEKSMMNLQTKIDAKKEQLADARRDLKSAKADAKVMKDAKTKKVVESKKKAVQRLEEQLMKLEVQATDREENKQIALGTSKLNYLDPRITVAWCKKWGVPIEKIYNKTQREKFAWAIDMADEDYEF
- testDescription: Inhibition of recombinant human topoisomerase 1-mediated relaxation of supercoiled pBR322 DNA at 100 uM measured after 30 mins by ethidium bromide staining based agarose gel electrophoresis relative to control
Measured inhibition values are reported for all entries that follow.
Write it as a number; the unit % goes unstated.

structurenotation=Oc1ccc(-c2cc(-c3cccc(Cl)c3)nc3c2Cc2cc(O)ccc2-3)cc1 readoutname=inhibition numericreadout=0
structurenotation=Oc1cccc(-c2cc(-c3ccccc3F)nc3c2Cc2c(O)cccc2-3)c1 readoutname=inhibition numericreadout=9.7

With those in mind, consider the next molecule.
Note to self: inhibition recorded for "Oc1ccccc1-c1cc(-c2cccc(F)c2)nc2c1Cc1cccc(O)c1-2" was 0

---

- Test system: HeLa
- testDescription: Antiproliferative activity against human HeLa cells measured after 72 hrs by EZ-Cytox assay
- Assay type: functional, cell-based
readoutName: IC50 (µM)
Write it as a number; the unit µM goes unstated.

structurenotation=Oc1ccc(-c2cc(-c3cccc(Cl)c3)c3c(n2)-c2cccc(O)c2C3)cc1 targetortestsystem=HeLa numericreadout=1.66
structurenotation=Oc1cccc2c1Cc1c(-c3ccccc3)cc(-c3ccccc3)nc1-2 targetortestsystem=HeLa numericreadout=4.18
structurenotation=Oc1ccccc1-c1cc(-c2cccc(C(F)(F)F)c2)nc2c1Cc1c(O)cccc1-2 targetortestsystem=HeLa numericreadout=4.25
structurenotation=Oc1ccc2c(c1)-c1nc(-c3cccc(Cl)c3)cc(-c3ccccc3O)c1C2 targetortestsystem=HeLa numericreadout=2.77
structurenotation=Oc1ccc(-c2cc(-c3ccccc3C(F)(F)F)nc3c2Cc2ccc(O)cc2-3)cc1 targetortestsystem=HeLa numericreadout=1.52

"Oc1ccccc1-c1cc(-c2cccc(Cl)c2)c2c(n1)-c1c(O)cccc1C2" on HeLa gives IC50 = 14.3

"Oc1ccc(-c2cc(-c3cccc(F)c3)nc3c2Cc2cccc(O)c2-3)cc1" on HeLa gives IC50 = 7.2

---

- Test system: HeLa
- testDescription: Antiproliferative activity against human HeLa cells measured after 72 hrs by EZ-Cytox assay
- Format: functional, cell-based
Measured pIC50 values are reported for all entries that follow.
# pIC50 = -log10(concentration in molar units)

structurenotation=Oc1ccccc1-c1cc(-c2ccc(Cl)cc2)nc2c1Cc1c(O)cccc1-2 targetortestsystem=HeLa readoutname=pIC50 numericreadout=5.71

With those in mind, consider the next molecule.
Note to self: pIC50 recorded for "Oc1ccc2c(c1)Cc1c(-c3ccccc3O)cc(-c3ccc(F)cc3)nc1-2" was 4.84

---

Measured pIC50 values are reported for all entries that follow.
- System: HeLa
- testDescription: Antiproliferative activity against human HeLa cells measured after 72 hrs by EZ-Cytox assay
- Format: functional, cell-based
pIC50: −log10 of the molar value.

Some compounds with recorded pIC50:
structurenotation=Oc1ccc2c(c1)-c1nc(-c3ccccc3O)cc(-c3ccccc3Cl)c1C2 targetortestsystem=HeLa readoutname=pIC50 result="< 4.30"
structurenotation=Oc1ccccc1-c1cc(-c2ccccc2Cl)c2c(n1)-c1c(O)cccc1C2 targetortestsystem=HeLa readoutname=pIC50 result="< 4.30"
structurenotation=Oc1cccc(-c2cc(-c3ccc(Cl)cc3)c3c(n2)-c2cc(O)ccc2C3)c1 targetortestsystem=HeLa readoutname=pIC50 result="< 4.30"
structurenotation=Oc1cccc(-c2cc(-c3ccccc3)c3c(n2)-c2cc(O)ccc2C3)c1 targetortestsystem=HeLa readoutname=pIC50 result="< 4.30"
structurenotation=Oc1ccc(-c2cc(-c3ccccc3F)nc3c2Cc2cccc(O)c2-3)cc1 targetortestsystem=HeLa readoutname=pIC50 result="< 4.30"

Note to self: pIC50 recorded for "Oc1cccc(-c2cc(-c3ccc(C(F)(F)F)cc3)nc3c2Cc2ccc(O)cc2-3)c1" was 5.44

Note to self: pIC50 recorded for "Oc1ccc2c(c1)-c1nc(-c3ccccc3)cc(-c3ccccc3)c1C2" was 5.36

Note to self: pIC50 recorded for "Oc1cccc(-c2cc(-c3cccc(C(F)(F)F)c3)nc3c2Cc2cccc(O)c2-3)c1" was < 4.30

Note to self: pIC50 recorded for "Oc1ccccc1-c1cc(-c2ccccc2)nc2c1Cc1c(O)cccc1-2" was 5.20

---

- Test system: HeLa
- testDescription: Antiproliferative activity against human HeLa cells measured after 72 hrs by EZ-Cytox assay
- Type: functional, cell-based
Measured pIC50 values are reported for all entries that follow.
# pIC50 = -log10(concentration in molar units)

Some molecules with recorded pIC50:
structurenotation=Oc1cccc(-c2cc(-c3ccccc3F)nc3c2Cc2c(O)cccc2-3)c1 readoutname=pIC50 numericreadout=5.17
structurenotation=Oc1ccc2c(c1)-c1nc(-c3cccc(C(F)(F)F)c3)cc(-c3ccccc3O)c1C2 readoutname=pIC50 numericreadout=5.28
structurenotation=Oc1ccc2c(c1)-c1nc(-c3ccccc3)cc(-c3ccccc3O)c1C2 readoutname=pIC50 numericreadout=5.43
structurenotation=Oc1cccc(-c2cc(-c3ccc(Cl)cc3)nc3c2Cc2c(O)cccc2-3)c1 readoutname=pIC50 numericreadout=5.36
structurenotation=Oc1cccc(-c2cc(-c3ccc(F)cc3)nc3c2Cc2cc(O)ccc2-3)c1 readoutname=pIC50 numericreadout=5.43
structurenotation=Oc1ccc(-c2cc(-c3cccc(Cl)c3)c3c(n2)-c2ccc(O)cc2C3)cc1 readoutname=pIC50 numericreadout=5.23
structurenotation=Oc1ccccc1-c1cc(-c2ccc(C(F)(F)F)cc2)nc2c1Cc1c(O)cccc1-2 readoutname=pIC50 numericreadout=5.21
structurenotation=Oc1ccccc1-c1cc(-c2cccc(F)c2)nc2c1Cc1c(O)cccc1-2 readoutname=pIC50 numericreadout=5.41
structurenotation=Oc1cccc(-c2cc(-c3cccc(Cl)c3)nc3c2Cc2c(O)cccc2-3)c1 readoutname=pIC50 numericreadout=5.48
structurenotation=Oc1ccc(-c2cc(-c3ccc(Cl)cc3)c3c(n2)-c2ccc(O)cc2C3)cc1 readoutname=pIC50 numericreadout=5.17

Note to self: pIC50 recorded for "Oc1cccc(-c2cc(-c3ccccc3C(F)(F)F)nc3c2Cc2cc(O)ccc2-3)c1" was 5.40

Note to self: pIC50 recorded for "Oc1ccc(-c2cc(-c3ccccc3)nc3c2Cc2cc(O)ccc2-3)cc1" was 5.56

Note to self: pIC50 recorded for "Oc1cccc2c1-c1nc(-c3ccccc3)cc(-c3ccccc3)c1C2" was 5.51

Note to self: pIC50 recorded for "Oc1cccc(-c2cc(-c3ccccc3F)nc3c2Cc2cc(O)ccc2-3)c1" was 5.40
